The entries below come with measured EGF-R values attached.
- Measured Target: EGF-R (Homo sapiens)
- Sequence (P00533 25-1210, species assumed): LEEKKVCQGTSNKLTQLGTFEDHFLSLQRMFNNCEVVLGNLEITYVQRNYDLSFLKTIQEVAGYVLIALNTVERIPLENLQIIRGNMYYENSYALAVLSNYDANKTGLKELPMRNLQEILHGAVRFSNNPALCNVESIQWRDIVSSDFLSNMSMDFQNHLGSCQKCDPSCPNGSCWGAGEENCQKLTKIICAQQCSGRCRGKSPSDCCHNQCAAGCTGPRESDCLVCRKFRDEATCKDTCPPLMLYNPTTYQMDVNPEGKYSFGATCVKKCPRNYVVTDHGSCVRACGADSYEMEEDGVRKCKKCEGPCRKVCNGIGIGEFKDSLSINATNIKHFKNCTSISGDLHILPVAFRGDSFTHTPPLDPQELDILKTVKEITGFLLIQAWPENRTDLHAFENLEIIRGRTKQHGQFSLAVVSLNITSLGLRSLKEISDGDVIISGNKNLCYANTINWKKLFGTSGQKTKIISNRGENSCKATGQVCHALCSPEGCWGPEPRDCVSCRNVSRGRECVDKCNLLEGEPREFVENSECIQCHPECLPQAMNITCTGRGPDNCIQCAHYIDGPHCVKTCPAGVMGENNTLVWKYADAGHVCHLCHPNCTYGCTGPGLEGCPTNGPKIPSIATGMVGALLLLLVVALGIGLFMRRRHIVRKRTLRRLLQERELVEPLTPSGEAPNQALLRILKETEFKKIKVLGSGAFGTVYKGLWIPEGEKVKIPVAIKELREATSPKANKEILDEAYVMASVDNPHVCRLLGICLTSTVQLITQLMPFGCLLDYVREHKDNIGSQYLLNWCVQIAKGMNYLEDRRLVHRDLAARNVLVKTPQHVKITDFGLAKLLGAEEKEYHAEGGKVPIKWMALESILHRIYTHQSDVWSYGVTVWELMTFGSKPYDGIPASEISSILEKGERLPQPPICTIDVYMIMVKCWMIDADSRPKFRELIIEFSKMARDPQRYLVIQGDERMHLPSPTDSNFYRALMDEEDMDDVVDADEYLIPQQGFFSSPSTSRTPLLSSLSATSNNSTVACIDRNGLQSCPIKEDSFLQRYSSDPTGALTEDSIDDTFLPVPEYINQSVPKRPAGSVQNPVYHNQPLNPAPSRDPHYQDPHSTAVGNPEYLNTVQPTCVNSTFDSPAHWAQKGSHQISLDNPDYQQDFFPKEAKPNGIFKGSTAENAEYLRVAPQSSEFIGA
- Run Description: EGF-R kinase assay, 33P-ATP incorporation, residual activity
- Type: biochemical
- Condition Context: tested at 25 micromolar

Look over these answered cases.
[
  {
    "Compound": "Nc1ncnc2c1ncn2[C@@H]1O[C@H](CN2C(=O)C(Cc3ccccc3)N(Cc3cccn3S(=O)(=O)c3ccccc3)C2=O)[C@@H](O)[C@H]1O (some centres unmarked) [compound 223]",
    "Measured Target": "EGF-R (Homo sapiens)",
    "Val": 22
  },
  {
    "Compound": "Nc1ncnc2c1ncn2[C@@H]1O[C@H](CN2C(=O)C(Cc3ccccc3)N(Cc3ccccc3[N+](=O)[O-])C2=O)[C@@H](O)[C@H]1O (some centres unmarked) [compound 212]",
    "Measured Target": "EGF-R (Homo sapiens)",
    "Val": 23
  },
  {
    "Compound": "CCn1c2ccccc2c2ccc(CN3C(=O)N(C[C@H]4O[C@@H](n5nnc(C(N)=O)c5-c5ccccc5)[C@H](O)[C@@H]4O)C(=O)C3Cc3ccccc3)cc21 (some centres unmarked) [compound 246]",
    "Measured Target": "EGF-R (Homo sapiens)",
    "Val": 15
  },
  {
    "Compound": "CCCc1c(C(N)=O)nnn1[C@@H]1O[C@H](CNCc2nc3cc(C(N)=O)ccc3n2-c2ccc(-c3ccccc3)cc2)[C@@H](O)[C@H]1O [compound 345]",
    "Measured Target": "EGF-R (Homo sapiens)",
    "Val": 58
  },
  {
    "Compound": "CCCCCCCCSc1nc2cc(C(N)=O)ccc2n1C[C@H]1O[C@@H](n2nnc(C(N)=O)c2-c2ccccc2)[C@H](O)[C@@H]1O [compound 146]",
    "Measured Target": "EGF-R (Homo sapiens)",
    "Val": 94
  }
]

q: Give the measured EGF-R for Nc1ncnc2c1ncn2[C@@H]1O[C@H](CN2C(=O)C(Cc3ccccc3)N(Cc3cccs3)C2=O)[C@@H](O)[C@H]1O (some centres unmarked) [compound 605]
a: 20

q: Give the measured EGF-R for Nc1ncnc2c1ncn2[C@@H]1O[C@H](CN2C(=O)C(Cc3ccccc3)N(Cc3ccccc3Sc3ccc(Cl)cc3)C2=O)[C@@H](O)[C@H]1O (some centres unmarked) [compound 604]
a: 27

q: Give the measured EGF-R for CCCCCCCCOc1ccc(-c2nc3cc(C(N)=O)ccc3n2C[C@H]2O[C@@H](n3nnc(C(N)=O)c3-c3ccccc3)[C@H](O)[C@@H]2O)cc1 [compound 279]
a: 66

q: Give the measured EGF-R for CCCc1c(C(N)=O)nnn1[C@@H]1O[C@H](Cn2c(-c3ccc(F)c(C(F)(F)F)c3)nc3cc(C(N)=O)ccc32)[C@@H](O)[C@H]1O [compound 456]
a: 96

q: Give the measured EGF-R for Nc1ncnc2c1ncn2[C@@H]1O[C@H](Cn2c(-c3ccc(OCc4ccccc4)cc3)nc3ccccc32)[C@@H](O)[C@H]1O [compound 912]
a: 88

q: Give the measured EGF-R for Cc1cccc(CSc2nc3cc(C(N)=O)ccc3n2C[C@H]2O[C@@H](n3cnc4c(N)ncnc43)[C@H](O)[C@@H]2O)c1 [compound 100]
a: 69
